- target-desc: Human GPR120 (Homo sapiens, UniProt Q5NUL3)
- Construct: Ga16 (promiscuous G protein) fusion partner; expressed in transfected cells
- Sequence (Q5NUL3 with tags, fused parts or gaps): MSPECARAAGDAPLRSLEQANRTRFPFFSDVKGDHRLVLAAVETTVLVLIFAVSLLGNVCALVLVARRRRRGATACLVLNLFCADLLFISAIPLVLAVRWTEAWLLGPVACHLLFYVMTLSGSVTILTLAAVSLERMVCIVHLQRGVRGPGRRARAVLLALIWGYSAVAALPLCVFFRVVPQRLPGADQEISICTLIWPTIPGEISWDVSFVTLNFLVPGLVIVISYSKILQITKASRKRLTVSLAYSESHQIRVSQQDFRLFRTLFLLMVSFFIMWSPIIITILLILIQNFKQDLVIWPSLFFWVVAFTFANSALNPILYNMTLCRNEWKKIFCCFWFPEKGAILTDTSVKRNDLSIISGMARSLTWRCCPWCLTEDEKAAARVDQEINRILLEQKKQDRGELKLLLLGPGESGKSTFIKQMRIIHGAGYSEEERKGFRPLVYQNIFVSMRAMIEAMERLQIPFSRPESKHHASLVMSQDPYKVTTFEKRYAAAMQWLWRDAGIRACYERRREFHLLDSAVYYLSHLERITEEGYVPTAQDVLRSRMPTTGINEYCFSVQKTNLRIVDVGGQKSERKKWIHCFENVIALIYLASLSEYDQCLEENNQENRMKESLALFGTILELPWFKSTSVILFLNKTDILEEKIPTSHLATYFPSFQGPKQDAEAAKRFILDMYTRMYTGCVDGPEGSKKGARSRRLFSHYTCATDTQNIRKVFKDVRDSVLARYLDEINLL
- experiment: FLIPR assay: agonist-induced calcium mobilization in HEK293-GPR120-Ga16 cells
- Format: cell-based
- experimental-conditions: GPR120 activation, calcium mobilization, HEK293-GPR120-Ga16 cells; read-out: EC50
So I've got a bunch of molecules here, and I need their EC50 values.
Give bare numbers, in nM.

Guide cases for EC50, answers given:
Dear colleague, I am looking for the recorded EC50 of the following molecule: CCn1c(-c2cccc(OCc3ccccn3)c2)cs/c1=N\c1ccc(C(=O)O)cc1
700

Ok, now COc1ccc(-n2cc(-c3cccc(C(=O)O)c3)nn2)cc1
1400

Ok, now CCn1c(-c2ccccc2NC)cs/c1=N\c1ccc(C(=O)O)cc1
526

Ok, now CCn1c(-c2cccc(OCCOC)c2)cs/c1=N\c1ccc(C(=O)O)cc1
119

Ok, now CCn1c(-c2ccccc2[N+](=O)[O-])cs/c1=N\c1ccc(C(=O)O)cc1
604

Ok, now CCn1c(-c2cc(C(F)(F)F)cc(C(F)(F)F)c2)cs/c1=N\c1ccc(S(=O)(=O)O)cc1
396

Ok, now O=C(O)c1ccc(/N=c2\scc(-c3ccccc3)n2CC2CC2)cc1
446

Ok, now CCn1c(-c2ccccc2)c(C)s/c1=N\c1ccc(S(=O)(=O)O)cc1
547

I need EC50 for every entry listed below, if you could help.
1. O=C(O)c1ccc(/N=c2\scc(-c3ccccc3)n2CC(F)(F)F)cc1
2. CCn1c(-c2ccccc2)cs/c1=N\c1ccc(-c2nn[nH]n2)cc1
3. CCn1c(-c2cccc3ccccc23)cs/c1=N\c1ccc(C(=O)O)cc1
4. CCCn1c(-c2ccccc2)cs/c1=N\c1ccc(C(=O)O)cc1
5. CCn1c(-c2ccccc2)cs/c1=N\c1ccc(C(=O)O)c(F)c1F

[184, 207, 354, 479, 485]

I need EC50 for every entry listed below, if you could help.
1. CC(C)c1ccc(-n2cc(-c3cccc(C(=O)O)c3)nn2)cc1
2. COc1ccc(-c2nc(-c3cccc(C(=O)O)c3)no2)cc1

1. 878
2. 290

I need EC50 for every entry listed below, if you could help.
1. Cc1ccc(-c2cn(-c3cccc(C(=O)O)c3)nn2)cc1
2. CCn1c(-c2ccccc2OC(F)(F)F)cs/c1=N\c1ccc(S(=O)(=O)O)cc1
3. CCn1c(-c2cc(O)ccc2Br)cs/c1=N\c1ccc(C(=O)O)cc1

[1340, 541, 628]

Cited source for all entries: patent US8362050B2
